meta.source: patent US10647721B2

Reported EC50 values follow for various compounds
Test system: γ-secretase
Assay: Cellular γ-secretase assay (inhibition of Aβ42 secretion, AlphaLisa)
Type: cell-based
Conditions: human neuroglioma H4 cells overexpressing human APP695 Swedish double mutation, 24 hr compound incubation
Protocol: Cellular γ-Secretase Assay […] After incubation at 37° C., 5% CO2, the supernatant was subjected to quantification of secreted Aβ42 by the means of an AlphaLisa assay kit (Human Amyloid beta 1-42 Kit: Cat # AL203C, Perkin Elmer). […] The assay plate was then read on a Paradigm AlphaLisa Reader using the build-in program with excitation at 680 nm and emission at […]. […]
MEASURE NAME: EC50 (nM)

[
  {
    "CHEMICAL STRING": "COc1cc(Nc2nc3n(n2)CCCN3c2ccc(F)c(F)c2)ccc1-n1cnc(C(F)(F)F)c1",
    "MEASURE NAME": "EC50",
    "UOM": "nM",
    "EXPERIMENTAL VALUE": 37
  },
  {
    "CHEMICAL STRING": "N#Cc1cc(Nc2nc3n(n2)CCCN3c2ccc(F)cc2)ccc1-n1cnc(Cl)c1",
    "MEASURE NAME": "EC50",
    "UOM": "nM",
    "EXPERIMENTAL VALUE": 21
  },
  {
    "CHEMICAL STRING": "COc1cc(Nc2nc3n(n2)CCCN3c2ccc(F)c(F)c2)ccc1-n1cnc(Cl)n1",
    "MEASURE NAME": "EC50",
    "UOM": "nM",
    "EXPERIMENTAL VALUE": 29.8
  },
  {
    "CHEMICAL STRING": "COc1cc(Nc2nc3n(n2)CCN3c2ccc(F)c(F)c2F)ccc1-n1cnc(Cl)c1",
    "MEASURE NAME": "EC50",
    "UOM": "nM",
    "EXPERIMENTAL VALUE": 30
  },
  {
    "CHEMICAL STRING": "N#Cc1cc(Nc2nc3n(n2)CCCN3c2ccc(F)c(F)c2)ccc1-n1cnc(Cl)c1",
    "MEASURE NAME": "EC50",
    "UOM": "nM",
    "EXPERIMENTAL VALUE": 9
  },
  {
    "CHEMICAL STRING": "COc1cc(Nc2nc3n(n2)CCCN3c2ccc(F)c(F)c2F)ccc1-c1cnc(C)o1",
    "MEASURE NAME": "EC50",
    "UOM": "nM",
    "EXPERIMENTAL VALUE": 14.4
  },
  {
    "CHEMICAL STRING": "Cc1ncn(-c2ccc(Nc3nc4n(n3)CCCN4c3ccc(F)c(F)c3)cc2)n1",
    "MEASURE NAME": "EC50",
    "UOM": "nM",
    "EXPERIMENTAL VALUE": 56.1
  },
  {
    "CHEMICAL STRING": "COc1cc(Nc2nc3n(n2)CCCN3c2ccc(F)cc2)ccc1-n1cnc(Cl)c1",
    "MEASURE NAME": "EC50",
    "UOM": "nM",
    "EXPERIMENTAL VALUE": 10
  },
  {
    "CHEMICAL STRING": "COc1cc(Nc2nc3n(n2)CCCN3c2cccc(F)c2)ccc1-n1cnc(C)n1",
    "MEASURE NAME": "EC50",
    "UOM": "nM",
    "EXPERIMENTAL VALUE": 30.4
  },
  {
    "CHEMICAL STRING": "COc1cc(Nc2nc3n(n2)CCCN3c2ccc(F)c(F)c2F)ccc1-n1cnc(C)n1",
    "MEASURE NAME": "EC50",
    "UOM": "nM",
    "EXPERIMENTAL VALUE": 32.9
  },
  {
    "CHEMICAL STRING": "Cc1ncc(-c2ccc(Nc3nc4n(n3)CCCN4c3ccc(F)c(F)c3)cc2)o1",
    "MEASURE NAME": "EC50",
    "UOM": "nM",
    "EXPERIMENTAL VALUE": 19.8
  },
  {
    "CHEMICAL STRING": "COc1cc(Nc2nc3n(n2)CCN3c2ccc(F)c(F)c2)ccc1-n1cnc(Cl)c1",
    "MEASURE NAME": "EC50",
    "UOM": "nM",
    "EXPERIMENTAL VALUE": 40.4
  },
  {
    "CHEMICAL STRING": "Cc1ncc(-c2ccc(Nc3nc4n(n3)CCCN4c3ccc(F)c(F)c3)cc2C#N)o1",
    "MEASURE NAME": "EC50",
    "UOM": "nM",
    "EXPERIMENTAL VALUE": 20.2
  },
  {
    "CHEMICAL STRING": "Cc1ncn(-c2ccc(Nc3nc4n(n3)CCCN4c3ccc(F)c(F)c3)cc2OC(F)F)n1",
    "MEASURE NAME": "EC50",
    "UOM": "nM",
    "EXPERIMENTAL VALUE": 16.6
  },
  {
    "CHEMICAL STRING": "COc1cc(Nc2nc3n(n2)CCCN3c2ccc(F)c(F)c2)ccc1-c1cnc(C)o1",
    "MEASURE NAME": "EC50",
    "UOM": "nM",
    "EXPERIMENTAL VALUE": 14.3
  },
  {
    "CHEMICAL STRING": "Cc1ncc(-c2ccc(Nc3nc4n(n3)CCCN4c3ccc(F)c(F)c3)cc2F)o1",
    "MEASURE NAME": "EC50",
    "UOM": "nM",
    "EXPERIMENTAL VALUE": 20.4
  },
  {
    "CHEMICAL STRING": "COc1cc(Nc2nc3n(n2)CCCN3c2ccc(F)c(F)c2)ccc1-c1cc(C)n[nH]1",
    "MEASURE NAME": "EC50",
    "UOM": "nM",
    "EXPERIMENTAL VALUE": 58.5
  }
]
